Quick reference: Sox 17 Intensity average of the listed items.
- System: H1 or H9 human embryonic stem cells
- assay-protocol: Activin A bioassay: differentiation of human embryonic stem cells to definitive endoderm, cell number and SOX17 intensity by high content analysis (96-well, four days);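 further: total fluorescence of the cell multiplied by cell area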
- Type: cell-based
- experimental-parameters: supernatant concentration 1x, assay dilution 1:20
endpoint-name: Sox 17 Intensity average

INSERT INTO measurements (molecule, endpoint_result) VALUES
  ('ACTN79: activin A variant peptide, SEQ ID 80 (protein) GLECDGKVNICCKKQSFGQAKDIGWNDWIIAPSGYHGGGCTGECPSHIAGTSGSSLSFHSTVINHYRMRGHSPWANLKSCCSPTKLRPMSMLYYDDGQNIIKKDIQRMVVEECGCT', '4.07E+05'),
  ('ACTN87: activin A variant peptide, SEQ ID 88 (protein) GLECDGKVNICCKKQSFGQAKDIGWNDWIIAPSGYHGGSCSGECPSHIAGTSGSSLSFHSTVINHYRMRGHSPFANLKSCCSPTKLRPMSMLYYDDGQNIIKKDIQNMVVEECGCT', '5.85E+05'),
  ('ACTN23: activin A variant peptide, SEQ ID 24 (protein) GLECDGKVNYCCKKQDFVSFKDIGWNDWIIAPSGYHANKCDGKCPSHIAGTSGSSLSFHSTVINHYRMRGHSPFSDMGSCCIPTKLRPMSMLYYDDGQNIIKKDIQNMIVEECGCS', '2.89E+04');
